# credit: ChEMBL document CHEMBL3612009

experimentNotes: Cytotoxicity against BALB/c mouse splenocytes assessed as maximum non-toxic concentration by measuring [3H]-thymidine incorporation after 24 hrs by liquid scintillation counting
Type: cell-based, Splenocyte
Entries and their log10(MNTC at 24 h) values follow.
measurementName: log10(MNTC at 24 h) (log10 of the value in nM)

INSERT INTO assay_data (chemicalstring, measurednumber) VALUES
  ('NC(=S)N/N=C(/COc1ccc(Br)cc1)c1ccccc1', 4.84),
  ('COc1cccc(OC/C(=N\NC(N)=S)c2ccc(Br)cc2)c1', 3.40),
  ('CC(=O)Nc1ccc(OC/C(=N\NC(N)=S)c2ccc(Br)cc2)cc1', 3.38),
  ('NC(=S)N/N=C(\COc1cccc(Br)c1)c1ccc(Br)cc1', 3.43),
  ('NC(=S)N/N=C(\COc1cccc(Cl)c1Cl)c1ccc(Br)cc1', 4.36),
  ('COc1ccc(/C(COc2ccc(Br)cc2)=N\NC(N)=S)cc1', 3.40),
  ('Cc1ccc(/C(COc2ccc(Br)cc2)=N\NC(N)=S)cc1', 4.12),
  ('NC(=S)N/N=C(\COc1ccc(I)cc1)c1ccc(Br)cc1', 3.32),
  ('NC(=S)N/N=C(/COc1ccc(Br)cc1)c1ccc(Br)cc1', 4.35),
  ('CCc1ccc(OC/C(=N\NC(N)=S)c2ccc(Br)cc2)cc1', 3.41);
